Sodium-dependent dopamine transporter (Homo sapiens, UniProt Q01959): recorded AC50 for assorted compounds; also: assay procedure not described here
Sequence (Q01959 whole entry): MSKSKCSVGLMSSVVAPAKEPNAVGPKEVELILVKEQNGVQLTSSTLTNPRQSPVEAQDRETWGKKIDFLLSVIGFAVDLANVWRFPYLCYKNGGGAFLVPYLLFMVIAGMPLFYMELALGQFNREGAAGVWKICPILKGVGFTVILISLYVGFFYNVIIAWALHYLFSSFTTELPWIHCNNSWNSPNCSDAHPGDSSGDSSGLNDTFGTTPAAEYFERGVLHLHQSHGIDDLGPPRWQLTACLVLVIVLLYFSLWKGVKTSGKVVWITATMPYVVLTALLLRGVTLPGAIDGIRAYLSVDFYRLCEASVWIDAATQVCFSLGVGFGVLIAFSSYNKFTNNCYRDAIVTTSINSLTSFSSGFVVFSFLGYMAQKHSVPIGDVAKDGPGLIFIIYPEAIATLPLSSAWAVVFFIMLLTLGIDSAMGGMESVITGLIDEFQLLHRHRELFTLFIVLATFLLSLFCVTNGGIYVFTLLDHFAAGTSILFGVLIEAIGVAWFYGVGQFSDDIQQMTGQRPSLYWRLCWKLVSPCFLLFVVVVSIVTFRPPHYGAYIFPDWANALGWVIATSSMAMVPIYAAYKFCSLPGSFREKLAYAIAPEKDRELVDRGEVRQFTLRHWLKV
recorded.metric: AC50

> print(dat)
                                   compound  test.result
1  Cc1ccc([C@@H]2O[C@H](CO)[C@@H](O)[C@H](O)[C@H]2O)cc1Cc1ccc(-c2ccc(F)cc2)s1 [CANAGLIFLOZIN ANHYDROUS]      3.54 µM
2  CCC(=O)O[C@]1(C(=O)COC(C)=O)CC[C@H]2[C@@H]3CCC4=CC(=O)CC[C@]4(C)[C@H]3[C@@H](O)C[C@@]21C [HYDROCORTISONE ACEPONATE]      > 30 µM
3  C[C@]1(COc2ccc(N3CCC(Oc4ccc(OC(F)(F)F)cc4)CC3)cc2)Cn2cc([N+](=O)[O-])nc2O1      > 30 µM
4  CO/N=C(\C(=O)N[C@@H]1C(=O)N2C(C(=O)[O-])=C(C[n+]3cccc4c3CCC4)CS[C@H]12)c1csc(N)n1 [CEFPIROME]      > 30 µM
5  CNC(=O)Oc1ccc2c(c1)[C@]1(C)CCN(C)[C@@H]1N2C [PHYSOSTIGMINE]      > 30 µM
6  C=C1c2c(Cl)ccc(O)c2C(=O)C2=C(O)[C@]3(O)C(=O)C(C(N)=O)=C(O)[C@@H](N(C)C)[C@@H]3[C@@H](O)[C@H]12 [MECLOCYCLINE]      > 30 µM
7  O=C1[C@H]2CCCC[C@H]2C(=O)N1CCCCN1CCN(c2nsc3ccccc23)CC1 [PEROSPIRONE]      3.31 µM
8  CCCCC/C=C\C/C=C\C/C=C\CCCCC(=O)O [GAMOLENIC ACID]      > 30 µM

* * *

# study.target: Muscarinic acetylcholine receptor M2 (Homo sapiens, UniProt P08172); also: assay procedure not described here
# Sequence (P08172 whole entry): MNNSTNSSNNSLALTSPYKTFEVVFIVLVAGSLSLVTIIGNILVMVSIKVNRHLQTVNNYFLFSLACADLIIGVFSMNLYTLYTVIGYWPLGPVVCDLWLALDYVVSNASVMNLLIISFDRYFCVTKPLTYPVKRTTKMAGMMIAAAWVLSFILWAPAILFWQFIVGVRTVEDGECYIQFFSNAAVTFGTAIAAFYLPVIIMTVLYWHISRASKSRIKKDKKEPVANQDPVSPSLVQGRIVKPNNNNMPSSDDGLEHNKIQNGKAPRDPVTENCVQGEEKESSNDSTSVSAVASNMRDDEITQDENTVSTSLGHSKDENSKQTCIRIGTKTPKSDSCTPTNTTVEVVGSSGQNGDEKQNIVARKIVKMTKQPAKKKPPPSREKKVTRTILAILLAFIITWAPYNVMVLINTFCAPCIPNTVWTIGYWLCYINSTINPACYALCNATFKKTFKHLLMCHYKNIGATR
# Assay type: functional, cell-based
recorded.metric: AC50

compound	recorded.metric	test.result
CCOc1cc(CC(=O)N[C@@H](CC(C)C)c2ccccc2N2CCCCC2)ccc1C(=O)O [REPAGLINIDE]	AC50	> 30 µM
C[C@]12CC[C@H](O)CC1=CC[C@@H]1[C@@H]2CC[C@]2(C)C(c3cccnc3)=CC[C@@H]12	AC50	> 10 µM
COC(=O)[C@H](c1ccccc1Cl)N1CCc2sccc2C1	AC50	> 30 µM
CCCN(CCC)CCc1cccc2c1CC(=O)N2	AC50	> 30 µM
CC(C)C[C@H](CN)CC(=O)O	AC50	> 30 µM
CC(=O)OCC(CCn1cnc2cnc(N)nc21)COC(C)=O	AC50	> 10 µM
O=C1NC(=O)C(c2ccccc2)(c2ccccc2)N1	AC50	> 30 µM
CC(C)=CCOc1ccc(/C=C/C(=O)c2ccc(OCC=C(C)C)cc2OCC(=O)O)cc1	AC50	> 30 µM
O=C1CN=C(c2ccccc2)c2cc(Cl)ccc2N1	AC50	> 10 µM
COc1cccc(N(C)C(=S)Oc2ccc3c(c2)CCCC3)n1 [LIRANAFTATE]	AC50	> 30 µM
CCCCCCNC(=O)n1cc(F)c(=O)[nH]c1=O	AC50	> 30 µM
CC[N+]1(C)CCCC(OC(=O)C(O)(c2ccccc2)c2ccccc2)C1 (stereo unspecified) [PIPENZOLATE]	AC50	> 30 µM
Cc1cc(CC(=O)O)n(C)c1C(=O)c1ccc(Cl)cc1 [ZOMEPIRAC]	AC50	> 30 µM
CC(=O)S[C@@H]1CC2=CC(=O)CC[C@]2(C)[C@H]2CC[C@@]3(C)[C@@H](CC[C@@]34CCC(=O)O4)[C@H]12	AC50	> 30 µM
N[C@H](Cc1cc(I)c(Oc2cc(I)c(O)c(I)c2)c(I)c1)C(=O)O	AC50	> 10 µM
Cc1ccc2c(-c3ccccc3)nc(=O)n(C(C)C)c2c1	AC50	> 30 µM
CCCN(CCc1cccs1)[C@H]1CCc2c(O)cccc2C1	AC50	> 10 µM
CN(C)c1cc(NC(=O)CNC(C)(C)C)c(O)c2c1C[C@H]1C[C@H]3[C@H](N(C)C)C(O)=C(C(N)=O)C(=O)[C@@]3(O)C(O)=C1C2=O	AC50	> 30 µM
O=c1oc2ccccc2c(O)c1Cc1c(O)c2ccccc2oc1=O	AC50	> 10 µM
Nc1ccc(C(=O)O)c(O)c1	AC50	> 30 µM
CCC(C)(Oc1ccc(C2(c3ccc(OC(C)(CC)C(=O)O)cc3)CCCCC2)cc1)C(=O)O (stereo unspecified) [CLINOFIBRATE]	AC50	> 30 µM
CC1(C)S[C@@H]2[C@H](NC(=O)[C@H](N)c3ccc(O)cc3)C(=O)N2[C@H]1C(=O)O	AC50	> 30 µM
COc1ccc(/C=C/C(=O)Nc2ccccc2C(=O)O)cc1OC	AC50	> 30 µM
CCC(=O)O[C@@H](O[P@](=O)(CCCCc1ccccc1)CC(=O)N1C[C@H](C2CCCCC2)C[C@H]1C(=O)O)C(C)C	AC50	> 30 µM
Cc1ccc(NC(=O)C2(c3ccc4c(c3)OC(F)(F)O4)CC2)nc1-c1cccc(C(=O)O)c1	AC50	> 30 µM
CC(=O)Nc1c(I)c(C(=O)N[C@H]2C(O)O[C@H](CO)[C@@H](O)[C@@H]2O)c(I)c(N(C)C(C)=O)c1I (stereo partly specified) [METRIZAMIDE]	AC50	> 10 µM
Nc1nc2c(c(=O)[nH]1)N(C=O)C(CNc1ccc(C(=O)N[C@@H](CCC(=O)O)C(=O)O)cc1)CN2 (stereo partly specified)	AC50	> 30 µM
CCCNC(C)C(=O)Nc1ccccc1C (stereo unspecified)	AC50	> 10 µM
COc1ccc(Cc2nccc3cc(OC)c(OC)cc23)cc1OC	AC50	> 30 µM
CNC[C@H](O)c1cccc(O)c1	AC50	> 10 µM
COCCCOc1ccnc(C[S+]([O-])c2nc3ccccc3[nH]2)c1C (stereo unspecified)	AC50	> 10 µM
[H]/N=C(/N)N[C@H]1[C@H](O)[C@@H](O)[C@H](O[C@@H]2O[C@@H](C)[C@](O)(C=O)[C@H]2O[C@@H]2O[C@@H](CO)[C@H](O)[C@@H](O)[C@@H]2NC)[C@@H](N/C(N)=N\[H])[C@@H]1O	AC50	> 30 µM
CC(C)c1cc2c(cc1S(=O)(=O)O)[C@@]1(C)CCC[C@@](C)(C(=O)O)[C@@H]1CC2	AC50	> 30 µM
C[C@@H]1CCC[C@H](C)N1NC(=O)c1ccc(Cl)c(S(N)(=O)=O)c1 [CLOPAMIDE]	AC50	> 30 µM
CCN(CC)CCOC(=O)c1ccc(N)cc1Cl	AC50	> 30 µM
O=C1Nc2ccc(Cl)cc2C(c2ccccc2)=NC1O (stereo unspecified)	AC50	> 10 µM

* * *

D(3) dopamine receptor (Homo sapiens): recorded AC50 for assorted molecules; also: assay procedure not described here
Sequence (P35462 whole entry): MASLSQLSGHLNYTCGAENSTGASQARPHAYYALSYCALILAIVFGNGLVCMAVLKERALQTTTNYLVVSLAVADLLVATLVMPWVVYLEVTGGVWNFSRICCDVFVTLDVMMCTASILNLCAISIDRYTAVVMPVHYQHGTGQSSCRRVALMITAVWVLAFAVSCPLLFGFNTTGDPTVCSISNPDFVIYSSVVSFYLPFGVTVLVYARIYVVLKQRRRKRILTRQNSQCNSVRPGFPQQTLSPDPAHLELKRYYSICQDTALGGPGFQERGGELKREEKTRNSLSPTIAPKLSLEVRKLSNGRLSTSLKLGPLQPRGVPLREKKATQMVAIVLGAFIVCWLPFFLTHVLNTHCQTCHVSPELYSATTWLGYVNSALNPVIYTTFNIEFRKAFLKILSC

molecule	AC50
O=C(O)CSCC(=O)NC1CCSC1=O (centres undefined)	> 30 µM
CCn1cc(C(=O)O)c(=O)c2cc(F)c(N3CCNCC3)nc21	> 10 µM
O=C(O)c1cc(O)c2c3nc4ccccc4oc-3cc(=O)c2n1	1.6 µM
CC(=O)O[C@H]1C[C@@H]2CC[C@@H]3[C@H](CC[C@@]4(C)[C@H]3C[C@H]([N+]3(C)CCCCC3)[C@@H]4OC(C)=O)[C@@]2(C)C[C@@H]1[N+]1(C)CCCCC1	> 30 µM

* * *

# study.target: UniProt:P21731
# Sequence (P21731 whole entry): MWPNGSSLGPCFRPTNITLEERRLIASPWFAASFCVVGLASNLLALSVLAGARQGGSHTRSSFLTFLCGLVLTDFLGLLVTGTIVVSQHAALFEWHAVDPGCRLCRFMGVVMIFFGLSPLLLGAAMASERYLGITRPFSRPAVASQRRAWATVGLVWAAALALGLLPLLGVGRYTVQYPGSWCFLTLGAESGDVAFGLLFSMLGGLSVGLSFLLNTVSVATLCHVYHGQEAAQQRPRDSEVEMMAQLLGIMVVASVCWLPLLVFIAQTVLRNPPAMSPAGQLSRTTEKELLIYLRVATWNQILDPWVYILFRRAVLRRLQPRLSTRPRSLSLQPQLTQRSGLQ
# Type: functional, cell-based
*1 amine or outer side, *2 acyl side, *3 side chain or, on linkers, in order; H or OH if unused. Where a SMILES comes first, the peptide text is derived from it. Bridges are numbered along the chain shown (N, C = ends). [ ]: non-standard residue; d: D form. The star is where a group is joined. hTyr(3S-OH,4S-OH,3'-OSO3H) = N[C@H](C(=O)O)[C@H](O)[C@@H](O)c1ccc(O)c(OS(=O)(=O)O)c1; Orn(4R-OH,5R-OH) = O=C([C@H](C[C@@H](O)[C@@H](O)N[*:3])N[*:1])[*:2]; Pro(3S-OH,4S-Me) = C[C@H]1CN[C@H](C(=O)O)[C@H]1O; X1 = CCCCCOc1ccc(-c2cc(-c3ccc(C(=O)*)cc3)no2)cc1; Gln(3R-OH) = NC(=O)C[C@@H](O)[C@H](N)C(=O)O; Hyp = O=C(O)[C@@H]1C[C@@H](O)CN1
Quick reference: AC50 of the listed items.
recorded.metric: AC50

molecule	test.result
CC(C1=C(CCN(C)C)Cc2ccccc21)c1ccccn1 (stereo unspecified)	> 30 µM
C[C@@H](O)[C@H]1C(=O)N2C(C(=O)[O-])=C(SC3Cn4cnc[n+]4C3)[C@H](C)[C@H]12 (stereo partly specified)	> 30 µM
CNC(=O)Oc1ccc2c(c1)[C@]1(C)CCN(C)[C@@H]1N2C	> 30 µM
CCCCCOc1ccc(-c2cc(-c3ccc(C(=O)N[C@H]4C[C@@H](O)[C@@H](O)NC(=O)[C@@H]5[C@@H](O)[C@@H](C)CN5C(=O)[C@H]([C@H](O)CC(N)=O)NC(=O)[C@H]([C@H](O)[C@@H](O)c5ccc(O)c(OS(=O)(=O)O)c5)NC(=O)[C@@H]5C[C@@H](O)CN5C(=O)[C@H]([C@@H](C)O)NC4=O)cc3)no2)cc1 [MICAFUNGIN] (X1-[Orn(4R-OH,5R-OH)]T[Hyp][hTyr(3S-OH,4S-OH,3'-OSO3H)][Gln(3R-OH)][Pro(3S-OH,4S-Me)]; lactam 1-C)	7.12 µM
O=C(O)CCCc1ccc(N(CCCl)CCCl)cc1	> 30 µM
NCCCC(O)(P(=O)(O)O)P(=O)(O)O	> 30 µM
